Assign Kd to each entry below.
- target.under.test: T1, Human TREM2 extracellular domain (ECD), residues 19-131, C-terminally biotinylated, deglycosylated (human, UniProt Q9NZC2 19-131, C-terminally biotinylated; deglycosylated)
- T1 construct: range 19-131; loaded on Superstreptavidin biosensors; also called triggering receptor expressed on myeloid cells 2; Human BLI (deglycosylated)
- T1 sequence (looked up): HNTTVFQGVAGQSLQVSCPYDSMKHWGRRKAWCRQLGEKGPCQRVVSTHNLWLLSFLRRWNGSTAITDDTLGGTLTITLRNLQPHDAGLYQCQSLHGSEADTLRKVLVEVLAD
- protocol.notes: BLI steady state, deglycosylated human TREM2 ECD on sensor
*1 amine or outer side, *2 acyl side, *3 side chain or, on linkers, in order; H or OH if unused. Bridges are numbered along the chain shown (N, C = ends). Where no end group is shown, it is not given here. TATA = O=C(CC[*:1])N1CN(C(=O)CC[*:2])CN(C(=O)CC[*:3])C1
Give bare numbers, in nM.

Worked cases, answers included:
{"columns": ["binder", "measurement"],
 "data": [
  ["ACAEYCFWPFYHCA-NH2 (linker 2-6-13 via TATA; N-terminus assumed; SMILES C[C@H](N)C(=O)N[C@H]1CSCCC(=O)N2CN3CN(C2)C(=O)CCSC[C@H](NC(=O)[C@H](Cc2ccc(O)cc2)NC(=O)[C@H](CCC(=O)O)NC(=O)[C@H](C)NC1=O)C(=O)N[C@@H](Cc1ccccc1)C(=O)N[C@@H](Cc1c[nH]c2ccccc12)C(=O)N1CCC[C@H]1C(=O)N[C@@H](Cc1ccccc1)C(=O)N[C@@H](Cc1ccc(O)cc1)C(=O)N[C@@H](Cc1c[nH]cn1)C(=O)N[C@H](C(=O)N[C@@H](C)C(N)=O)CSCCC3=O) [BCY18220]", 2000],
  ["Ac-ACSEYCFWPFYHCA-NH2 (linker 2-6-13 via TATA) [BCY18218]", 2000]
]}

Moving on to the next binder.
Entry under review: Ac-CSEYCFWPFYDC (linker 1-5-12 via TATA) [BCY20573] . Reported Kd? 1960

Each recorded value in this set is attributed to patent US20220296726A1.
